tgt: MAGEB2 peptide … / HLA-A*02:01 / b2m (human)
protocol_notes: FACS
readout: Kd (nM)
Numbers only, in nM.

MA 98-C7 CC (Y8P) (antibody, V domains shown) VH: EVQLLESGGGLVQPGGSLRLSCAASGFTFSSHAMSWVRQAPGKCLEWVSSISGSGGGTYYAASVKGRFTISRDNSKNTLYLQMNSLRAEDTAVYYCATGKGVHLGFDYWGQGTLVTVSS VL: SYVLTQPPSVSVAPGQTARITCGGNNIGSKSVHWYQQKPGQAPVMVVYDDNDRPSGIPERFSGSNSGNTATLTISRVEAGDEADYYCQVWDYSPLRHVFGCGTKLTVL ... 0.7

Each binder below has a recorded value; state its Kd.
1. MA 09-H10 CC (B6N) (antibody, V domains shown) VH: QITLKESGPTLVKPTQTLTLTCTFSGFSFTTHKMGVDWIRQPPGKCLEWLALIYWNDDKRYSPSLQSRLTITKDTSKNQVVLTMTNMDPVDTATYYCAYRRYNWNYENWFDPWGQGTLVTVSS VL: DIQMTQSPSSLSASVGDRVTITCQASQDISNYLNWYQQKPGKAPKLLIYAASSLQSGVPSRFSGRGSGTDFTLTISSLQPEDFATYYCQQSYTPPTTFGCGTKVEIK
2. MA 88-B3-F9 CC (Y4E) (antibody, V domains shown) VH: QVQLVESGGGLVKPGGSLRLSCAASGFTFSDYYMSWIRQAPGKCLEWVSYISKSSYTVTYADAVKGRFTISRDNAKNSLYLQMNSLRAEDTAVYYCATYNYGHFDYWGQGTLVTVSS VL: SYVLTQPPSVSVAPGQTARITCGGNNIGSKSVHWYQQKPGQAPVLVVYDDADRPSGIPERFSGSNSGNTATLTISRVEAGDEADYYCQVWDASAGYGVVFGCGTKLTVL

1. 0.6
2. 74.1

# credit: patent US12312412
